- Experimental details: clinical
- Assay context: human, in vivo, po, t1/2, oral microdose cocktail; at carbamazepine steady-state; GM
Can you tell me half-life for the items I'm about to list?
One number for each entry, in h.

INSERT INTO results (structure_string, observed) VALUES
  ('COc1ccc(-n2nc(C(N)=O)c3c2C(=O)N(c2ccc(N4CCCCC4=O)cc2)CC3)cc1', 3.95);

Moving on to the next compound.
The recorded half-life for `O=C(NC[C@H]1CN(c2ccc(N3CCOCC3=O)cc2)C(=O)O1)c1ccc(Cl)s1` is 3.02

----------
- Experimental details: Pharmacokinetics of factor Xa inhibitors at baseline and at gabapentin steady-state (open-label fixed-sequence DDI trial)
- Assay context: human, in vivo, po, Cmax, oral microdose cocktail; baseline; GM
Value kind: Cmax (ng/mL)
Numbers only, in ng/mL.

INSERT INTO assay_data (structure_string, value_kind, observed) VALUES
  ('COc1ccc(-n2nc(C(N)=O)c3c2C(=O)N(c2ccc(N4CCCCC4=O)cc2)CC3)cc1', 'Cmax', 0.822);

Moving on to the next compound.
The recorded Cmax for `O=C(NC[C@H]1CN(c2ccc(N3CCOCC3=O)cc2)C(=O)O1)c1ccc(Cl)s1` is 0.718

----------
- Experimental details: clinical
- Assay context: human, in vivo, po, AUC∞, oral microdose cocktail; during carbamazepine steady-state; GM
Value kind: AUC(0-inf) (ng·h/mL)
Answers are plain numbers, in ng·h/mL.

INSERT INTO assay_data (structure_string, unit, observed) VALUES
  ('COc1ccc(-n2nc(C(N)=O)c3c2C(=O)N(c2ccc(N4CCCCC4=O)cc2)CC3)cc1', 'ng·h/mL', 3.92);

Moving on to the next molecule.
The recorded AUC(0-inf) for `O=C(NC[C@H]1CN(c2ccc(N3CCOCC3=O)cc2)C(=O)O1)c1ccc(Cl)s1` is 1.73

----------
- Experimental details: Pharmacokinetics of factor Xa inhibitors at baseline and at pregabalin steady-state (open-label fixed-sequence DDI trial)
- Assay context: human, in vivo, po, Cmax, oral microdose cocktail; before pregabalin; GM
Can you tell me Cmax for the items I'm about to list?
Answers are plain numbers, in ng/mL.

INSERT INTO measurements (structure_string, value_kind, unit, observed) VALUES
  ('COc1ccc(-n2nc(C(N)=O)c3c2C(=O)N(c2ccc(N4CCCCC4=O)cc2)CC3)cc1', 'Cmax', 'ng/mL', 0.782);

Moving on to the next compound.
The recorded Cmax for `O=C(NC[C@H]1CN(c2ccc(N3CCOCC3=O)cc2)C(=O)O1)c1ccc(Cl)s1` is 0.783

----------
- Experimental details: clinical
- Assay context: human, in vivo, po, Cmax, oral microdose cocktail; baseline; GM
Can you tell me Cmax for the items I'm about to list?
Numbers only, in ng/mL.

INSERT INTO measurements (molecule, unit, observed) VALUES
  ('COc1ccc(-n2nc(C(N)=O)c3c2C(=O)N(c2ccc(N4CCCCC4=O)cc2)CC3)cc1 [µ-apixaban, apixaban]', 'ng/mL', 0.719);

The recorded Cmax for O=C(NC[C@H]1CN(c2ccc(N3CCOCC3=O)cc2)C(=O)O1)c1ccc(Cl)s1 [µ-rivaroxaban, rivaroxaban] is 0.695

----------
- Experimental details: clinical
- Assay context: human, in vivo, po, AUC∞, oral microdose cocktail (25 µg apixaban, 50 µg edoxaban, 25 µg rivaroxaban); baseline; GM
Can you tell me AUC(0-inf) for the items I'm about to list?
Answers are plain numbers, in ng·h/mL.

INSERT INTO results (compound, observed) VALUES
  ('O=C(NC[C@H]1CN(c2ccc(N3CCOCC3=O)cc2)C(=O)O1)c1ccc(Cl)s1 [µ-rivaroxaban, rivaroxaban]', 3.1);

The recorded AUC(0-inf) for COc1ccc(-n2nc(C(N)=O)c3c2C(=O)N(c2ccc(N4CCCCC4=O)cc2)CC3)cc1 [µ-apixaban, apixaban] is 5.9

----------
- Experimental details: clinical
- Assay context: human, in vivo, po, Cmax, oral microdose cocktail; during carbamazepine steady-state; GM
Can you tell me Cmax for the items I'm about to list?
Answers are plain numbers, in ng/mL.

INSERT INTO assay_data (structure_string, observed) VALUES
  ('COc1ccc(-n2nc(C(N)=O)c3c2C(=O)N(c2ccc(N4CCCCC4=O)cc2)CC3)cc1', 0.634);

The recorded Cmax for `O=C(NC[C@H]1CN(c2ccc(N3CCOCC3=O)cc2)C(=O)O1)c1ccc(Cl)s1` is 0.524

----------
Can you tell me half-life for the items I'm about to list?
- Experimental details: clinical
- Assay context: human, in vivo, po, t1/2, oral microdose cocktail; baseline; GM
Hey, just the number and the unit after it is fine.

INSERT INTO assay_data (structure_string, value_kind, observed) VALUES
  ('COc1ccc(-n2nc(C(N)=O)c3c2C(=O)N(c2ccc(N4CCCCC4=O)cc2)CC3)cc1', 'half-life', '5.97 h');

Moving on to the next compound.
The recorded half-life for `O=C(NC[C@H]1CN(c2ccc(N3CCOCC3=O)cc2)C(=O)O1)c1ccc(Cl)s1` is 5.23 h

----------
Can you tell me Cmax for the items I'm about to list?
- Experimental details: Pharmacokinetics of factor Xa inhibitors at baseline and at gabapentin steady-state (open-label fixed-sequence DDI trial)
- Assay context: human, in vivo, po, Cmax, oral microdose cocktail; during gabapentin steady-state; GM
Give bare numbers, in ng/mL.

INSERT INTO assay_data (compound, value_kind, observed) VALUES
  ('COc1ccc(-n2nc(C(N)=O)c3c2C(=O)N(c2ccc(N4CCCCC4=O)cc2)CC3)cc1 [µ-apixaban, apixaban]', 'Cmax', 0.775);

Moving on to the next compound.
The recorded Cmax for O=C(NC[C@H]1CN(c2ccc(N3CCOCC3=O)cc2)C(=O)O1)c1ccc(Cl)s1 [µ-rivaroxaban, rivaroxaban] is 0.688

----------
- Experimental details: Pharmacokinetics of factor Xa inhibitors at baseline and at pregabalin steady-state (open-label fixed-sequence DDI trial)
- Assay context: human, in vivo, po, AUC∞, oral microdose cocktail; during pregabalin steady-state; GM
Value kind: AUC(0-inf) (ng·h/mL)
Answers are plain numbers, in ng·h/mL.

INSERT INTO assay_data (structure_string, observed) VALUES
  ('COc1ccc(-n2nc(C(N)=O)c3c2C(=O)N(c2ccc(N4CCCCC4=O)cc2)CC3)cc1', 6.07);

Moving on to the next compound.
The recorded AUC(0-inf) for `O=C(NC[C@H]1CN(c2ccc(N3CCOCC3=O)cc2)C(=O)O1)c1ccc(Cl)s1` is 3.03
